Ref: PubChem BioAssay (NCI)

Listing of recorded growth by entry.
# Test system: NCI-H522 lung
# procedure-text: NCI-60 one-dose screen, 48 h (100 = growth as untreated, 0 = no growth, -100 = all killed)
# assay-setup: 10 µM unless noted
Compounds without any hit were thinned out: in the full panel of roughly 83,000, 20% have a hit.

>  <compound>
COc1ccc2[nH]c(C(=O)N3CCN(C(=O)OCc4ccc5c(Br)cc(Br)c(O)c5n4)CC3)cc2c1

>  <growth (%)>
-78.4

$$$$
>  <compound>
Cc1ccc(S(=O)(=O)N/N=C2\CC3CCC2(C)C3(C)C)cc1 (centres undefined)

>  <growth (%)>
63.1

$$$$
>  <compound>
O=C(N[C@@H]1CCCc2ccccc21)[C@H](CCC(=O)N1CCN(C2CCCCC2)CC1)N1C(=O)[C@@H](N2C(=O)OC[C@@H]2c2ccccc2)[C@H]1/C=C/c1ccccc1

>  <growth (%)>
52.3

$$$$
>  <compound>
Cc1ccccc1OC(=O)c1cccc(Cl)c1

>  <growth (%)>
95.5

$$$$
>  <compound>
O=C(Nc1cc(F)cc2cccnc12)c1cnc(N2CCNCC2)cn1

>  <growth (%)>
54.5

$$$$
>  <compound>
Cc1ccc2c(n1)C(=O)C(Cl)=C(Nc1ccc(N3CCN(C)CC3)cc1)C2=O

>  <growth (%)>
-63.8

$$$$
>  <compound>
CCCCCn1c(C)cc(/C=C\c2ccc3cc(C)ccc3[n+]2C)c1C

>  <growth (%)>
-36.7

$$$$
>  <compound>
NC(=O)c1c(NC(=O)COC(=O)Cc2ccccc2F)sc2c1CCC2

>  <growth (%)>
85.5

$$$$
>  <compound>
COc1ccc(N(c2nc(-c3ccc([N+](=O)[O-])cc3)cs2)C(C)C)cc1

>  <growth (%)>
67.8

$$$$

---

# Test system: KM12 colon
# procedure-text: NCI-60 one-dose screen, 48 h (100 = growth as untreated, 0 = no growth, -100 = all killed)
# assay-setup: 10 µM unless noted
# Description: Growth inhibition of the KM12 human tumor cell line is measured as a screen for anti-cancer activity. Cells are grown in 96 well plates and exposed to the test compound for 48 hours. Compounds are tested at a single concentration, which is 10^-5 M for most compounds. The reported endpoint is percent growth (GI% or GIPRCNT), where numbers from 0 - 100% represent growth inhibition, and numbers from -100% - 0 represent cell death. For example, a value of 40 represents 60% growth inhibition. […]
This is part of a sample that, as a whole, favours compounds with a hit. Of some 83,000 tested, about 20% had one in any assay.
experimental-readout: growth (%)

>  <compound>
CCCc1cc2cc(-n3nc(C)c4c3CC(C)(C)CC4=O)cc(NC3CCSCC3)c2c(=O)[nH]1

>  <experimental-readout>
growth

>  <measured-value>
41.7

$$$$
>  <compound>
COc1ccc(-c2cc(-c3ccc(OC)c(OC)c3)nc(SCCCCCC(=O)NO)n2)cc1

>  <experimental-readout>
growth

>  <measured-value>
63.9

$$$$
>  <compound>
CC(=O)CC(=O)SC1=NCCS1

>  <experimental-readout>
growth

>  <measured-value>
102

$$$$
>  <compound>
COc1ccc2c(c1)C(C)Cc1c(Cl)nc(C)nc1N2C (stereo unspecified)

>  <experimental-readout>
growth

>  <measured-value>
21

$$$$
>  <compound>
COc1cc(-c2cc(-c3ccc(Nc4ncnc5cc(Cl)ccc45)cc3)nc(N3CCCCC3)n2)cc(OC)c1OC

>  <experimental-readout>
growth

>  <measured-value>
97.8

$$$$
>  <compound>
CCCCNC(=O)NS(=O)(=O)Cc1ccccc1

>  <experimental-readout>
growth

>  <measured-value>
109

$$$$
